So I've got a bunch of compounds here, and I need their melting point values.

[in] # get_value(readout='melting point', item= CCN(CC)C(=O)Nc1ccc(S(=O)(=O)N2C(=O)C(NCCN3CCNCC3)(c3ccccc3Cl)c3cc(Cl)ccc32)cc1 (centres undefined) )
[out] 260 °C

[in] # get_value(readout='melting point', item= O=C1c2cc(Cl)ccc2OC(CCCCl)N1O (centres undefined) )
[out] 70 to 75 °C

[in] # get_value(readout='melting point', item= O=[N+]([O-])c1cccc(Nc2nc(Cl)nc(Cl)n2)c1 )
[out] 173 °C

[in] # get_value(readout='melting point', item= Cc1ccc2c(c1)C=Cc1cc(C(C)C)ccc1C2c1cn(-c2ccnc(NCC(=O)Nc3nc(CC(=O)O)cs3)n2)c(=O)[nH]c1=O (centres undefined) )
[out] 215 to 220 °C

---

Metric Name: melting point (°C)
# number only, unit °C dropped from output

[in] # get_value(readout='melting point', item= CCOc1ccc(-c2cc(C(F)(F)F)n3ncc(-c4ccnc(C)c4)c3n2)cc1C(F)(F)F )
[out] 250

[in] # get_value(readout='melting point', item= Cc1cc(CC2CCCCC2)c(NC(=O)OCc2ccccc2)c(=O)n1CC(=O)O )
[out] 150

---

Metric Name: melting point

[in] # get_value(readout='melting point', item= COC(=O)c1cc(NC(=O)COc2ccccc2)c2cc(Cc3ccc(F)cc3)cnc2c1O )
[out] 172 to 173 °C

[in] # get_value(readout='melting point', item= O=C1OCCN1CCN1CCN(C2Cc3cc(Br)ccc3Sc3ccccc32)CC1 (stereo not given) )
[out] 170 to 172 °C

[in] # get_value(readout='melting point', item= CCc1c(OC)c(Cl)cc(C(N)=O)c1OC )
[out] 83 to 84 °C

[in] # get_value(readout='melting point', item= COc1ccc(CSCC(C(=O)O)C(F)(F)F)cc1 (stereo not given) )
[out] 72 to 74 °C

[in] # get_value(readout='melting point', item= CON1C(C)(C)CC(OC(=O)CCc2cc(-n3nc4ccc(Cl)cc4n3)c(O)c(C(C)(C)C)c2)CC1(C)C )
[out] 132 to 137 °C

---

So I've got a bunch of compounds here, and I need their melting point values.

[in] # get_value(readout='melting point', item= CCN(CC)C(=O)C(C)(C)n1cc(C)c(-c2ccccc2Cl)n1 )
[out] 73 to 76 °C

[in] # get_value(readout='melting point', item= CN1C(=O)N(CC2=C(CC3CCCC3)C(=O)OC2)C(=O)C1(C)C )
[out] 77 to 79 °C

[in] # get_value(readout='melting point', item= Nc1nc(N)c2ncn(CC/C=C/P(=O)(O)O)c2n1 )
[out] > 325 °C

[in] # get_value(readout='melting point', item= Nc1cccc(-c2ccc(CCN3CCN(c4nnnn4-c4ccccc4)CC3)cc2)n1 )
[out] 212 to 214 °C

[in] # get_value(readout='melting point', item= Cc1nccc2[nH]c(=O)c(C(=O)O)cc12 )
[out] 255 to 257 °C

[in] # get_value(readout='melting point', item= O=C(O)c1ccc(C(=O)N2Cc3cccn3Cc3ccccc32)cc1 )
[out] 210 to 214 °C

[in] # get_value(readout='melting point', item= COc1cccc2c1C(=O)N(CCl)S2(=O)=O )
[out] 169 to 174 °C

[in] # get_value(readout='melting point', item= CNS(=O)(=O)c1ccc(-c2c(Cl)nc(C(F)(F)F)nc2-c2ccc(S(C)(=O)=O)cc2)cc1 )
[out] 226 to 230 °C

[in] # get_value(readout='melting point', item= CC(C)(C)c1cc(C(O)C#Cc2ccc(C(=O)O)cc2)ccc1N1CCCCC1 (stereo unspecified) )
[out] 112 °C

[in] # get_value(readout='melting point', item= COc1ccc(C(=O)c2cc(Cl)ccc2NS(=O)(=O)c2ccc(C)cc2)c(O)c1OC )
[out] 185 to 187 °C

[in] # get_value(readout='melting point', item= COc1ccc(C(=O)c2cc3c(c(Cl)c2Cl)OC(C(=O)O)C3)cc1 (stereo unspecified) )
[out] 187 °C

[in] # get_value(readout='melting point', item= Cc1ncsc1C(O)c1ccoc1 (stereo unspecified) )
[out] 44 to 46 °C

[in] # get_value(readout='melting point', item= Cc1cc2cc(NC(=O)NC34CC5CC(CC(C5)C3)C4)ccc2[nH]1 )
[out] 146 to 152 °C

[in] # get_value(readout='melting point', item= O=C1c2cccc3cccc(c23)C(=O)N1C1CCC(O)CC1 (stereo unspecified) )
[out] 240 to 242 °C

[in] # get_value(readout='melting point', item= CCOc1ccc2nc(COc3ccc(CC4SC(=O)N(C(c5ccccc5)(c5ccccc5)c5ccccc5)C4=O)cc3)n(C)c2n1 (stereo unspecified) )
[out] 88 to 100 °C

[in] # get_value(readout='melting point', item= CCOC(=O)C1=Cc2cc(C#N)ccc2OC1C(F)(F)F (stereo unspecified) )
[out] 102 to 106 °C

[in] # get_value(readout='melting point', item= O=C(CCCN1CCCCC1)c1ccc2[nH]c3ccc(C(=O)CCCN4CCCCC4)cc3c2c1 )
[out] 171 to 173 °C

[in] # get_value(readout='melting point', item= O=C1CC(CSc2nc3ccccc3s2)C(=O)O1 (stereo unspecified) )
[out] 87 to 88 °C

[in] # get_value(readout='melting point', item= CCOC(=O)C1=C(N)NC(N)=C(C(=O)OCC)C1c1cccc(C(F)(F)F)c1 )
[out] 170 °C

[in] # get_value(readout='melting point', item= CC(C)(C)P(=O)(O)OCCCN )
[out] 253 to 255 °C

[in] # get_value(readout='melting point', item= CC(C)(C)NC(=O)c1nn(-c2ccc(C(C)(C)C)cc2)c2c1C1CCC2C1 (stereo unspecified) )
[out] 148 to 150 °C

[in] # get_value(readout='melting point', item= CCOC(Cc1ccc(OCCCc2nc(-c3ccc(C(F)(F)F)cc3)oc2C)c2ccsc12)C(=O)O (stereo unspecified) )
[out] 112 to 114 °C

[in] # get_value(readout='melting point', item= CN1CCC2(CC1)NC(=O)N(c1ccc(C#N)c(C(F)(F)F)c1)C2=N )
[out] 199 to 200 °C

[in] # get_value(readout='melting point', item= CCOC(=O)c1cnc2sccc2c1Sc1nnc(C)s1 )
[out] 93 to 94 °C

[in] # get_value(readout='melting point', item= C=C(C)Cn1c(=O)n(C)c(=O)c2c[nH]nc21 )
[out] 232 to 233 °C

[in] # get_value(readout='melting point', item= CNC(=O)c1cc2c(OC[C@@H](O)CN3CCC(c4ccc5ccccc5c4)CC3)cccc2n1C )
[out] 180 to 183 °C

[in] # get_value(readout='melting point', item= Fc1ccccc1C1=NCc2c(N3CCCC3)ncn2-c2ccc(Cl)cc21 )
[out] 114 to 118 °C

[in] # get_value(readout='melting point', item= Nc1c2c(nc3ccccc13)C1CCC2CC1 )
[out] 197 to 199 °C

[in] # get_value(readout='melting point', item= NC(=O)c1nnn(Cc2ccc(Cl)c(C(=O)c3ccc(Cl)cc3)c2)c1N )
[out] 189 to 192 °C

[in] # get_value(readout='melting point', item= N#Cc1cc(-c2nc3cncnc3s2)ccc1Oc1ccccc1Cl )
[out] 209 to 211 °C

[in] # get_value(readout='melting point', item= CCC1(C2OC(C3OC(O)(CO)C(C)CC3C)CC2C)CCC(C2(C)CCC3(CC(O)C(C)C(C(C)C(OC)C(C)C(=O)O)O3)O2)O1 (stereo unspecified) )
[out] 78 to 80 °C

[in] # get_value(readout='melting point', item= COc1ccc(-c2ccc(CCC#N)cc2)cc1 )
[out] 105 to 107 °C

[in] # get_value(readout='melting point', item= Cc1nc2n(c1CC#N)CCCC2OCc1ccccc1 (stereo unspecified) )
[out] 132 to 134 °C

[in] # get_value(readout='melting point', item= O=C(NCCCSc1cccnc1)c1cccs1 )
[out] 66 to 67 °C

[in] # get_value(readout='melting point', item= CCCCC(C(=O)OCC)S(=O)(=O)c1ccc(OC)cc1 (stereo unspecified) )
[out] 62 °C

[in] # get_value(readout='melting point', item= CC(=O)Oc1ccc(C2CC(=O)OC(=O)C2)cc1 )
[out] 140 to 143 °C

[in] # get_value(readout='melting point', item= CC(=O)OC1CC2=CCC3C4CCC(C(C)CS(=O)(=O)c5ccccc5)C4(C)CCC3C2(C)C(OC(C)=O)C1 (stereo unspecified) )
[out] 104 °C

[in] # get_value(readout='melting point', item= CCCN(CCC)c1c(CC)nn2c(-c3ccc(OC)cc3Cl)cccc12 )
[out] 73.6 to 76 °C

[in] # get_value(readout='melting point', item= C=C(CO)COCCCCCCCCCCCCCCCC )
[out] 34 °C

[in] # get_value(readout='melting point', item= O=C(Nc1cccc(-c2ccnc3c(C(=O)c4cccs4)cnn23)c1)c1ccco1 )
[out] > 240 °C

[in] # get_value(readout='melting point', item= O=C(Nc1cnccn1)C(Cl)(Cl)Cl )
[out] 68 °C
